Entry source: PubChem BioAssay (NCI)

- System: RPMI-8226 leukemia
- measurement notes: NCI tumour cell line growth inhibition, 48 h
quantity measured: GI50

# return recorded GI50 for entry O=C(NCc1ccc(Cn2c(=O)sn(-c3ccccc3)c2=O)cc1)OCc1ccc2c(Br)cc(Br)c(O)c2n1
312 nM

# return recorded GI50 for entry CN(CC(=O)N(Cc1ccc(C2CCCCC2)cc1)c1ccc(C(=O)O)c(O)c1)S(=O)(=O)c1c(F)c(F)c(F)c(F)c1F
2280 nM

# return recorded GI50 for entry NC(=O)c1cc(-c2ccc(F)cc2)cc(-c2ccncc2)c1N
> 25000 nM

# return recorded GI50 for entry COc1cc(/C=C/C(=O)c2ccc(NC(=O)CN3CCN(c4cc5c(cc4F)c(=O)c(C(=O)O)cn5C4CC4)CC3)cc2)cc(OC)c1OC
310 nM

# return recorded GI50 for entry Cc1cc(Cl)ccc1NC(=O)c1cc2ccccc2cc1O
294 nM

# return recorded GI50 for entry CCCCCCCCCCCCCC[n+]1ccc2c(C)c3c(c(C)c2c1)c1cc(O)ccc1n3CC
310 nM

# return recorded GI50 for entry CCC1CCc2nc3sc(C(=O)Nc4cccc(F)c4)c(N)c3cc2C1 (stereo not given)
> 100000 nM

# return recorded GI50 for entry CCN(C(=O)c1cc(F)ccc1Oc1cncnc1N1CC2(CCN(CC3CCC(NS(=O)(=O)CC)CC3)CC2)C1)C(C)C (stereo not given)
> 100000 nM

# return recorded GI50 for entry CCCCCCCCCCCC1CCCC(C)N1 (stereo not given)
1660 nM

# return recorded GI50 for entry COc1cc2c(cc1C)NC(=O)/C2=C\c1cccc(Oc2ccccc2)c1
5020 nM
